- System: LXF-289
- Assay Notes: relative viability (nuclei count vs DMSO), 5 days (fraction); higher = more cells survive
- Experimental Parameters: first compound 0.04 µM
Define the label as true when relative viability is strictly less than 0.9 and as false in all remaining cases.

Field: example entries. Status: answers known.
• Clc1ccc(Nc2nnc(Cc3ccncc3)c3ccccc23)cc1 [Vatalanib] + C[C@@H](Oc1cc(-c2cnn(C3CCNCC3)c2)cnc1N)c1c(Cl)ccc(F)c1Cl [Crizotinib] (partner 1 µM) = true
• C[C@@H]1CN(CC(=O)Nc2ccc3c(c2)Cc2cccc(-c4cc(=O)cc(N5CCOCC5)o4)c2S3)C[C@H](C)O1 + N=C(N)NC(=N)NCCc1ccccc1 [Phenformin] (partner 250 µM) = true
• Clc1ccc(Nc2nnc(Cc3ccncc3)c3ccccc23)cc1 [Vatalanib] + Cc1cc(Nc2cc(N3CCN(C)CC3)nc(Sc3ccc(NC(=O)C4CC4)cc3)n2)n[nH]1 [Tozasertib] (partner 0.1 µM) = true

Now consider a different compound.
Problem: # check: relative viability < 0.9 for COc1cc(N2CCC(C(N)=O)CC2)ccc1Nc1nc(N)c(Cl)c(Nc2ccccc2S(=O)(=O)C(C)C)n1 [HG-5-88-01] + COc1cccc2cc(-c3nc([C@H]4CC[C@H](C(=O)O)CC4)n4ncnc(N)c34)[nH]c12 [OSI-027] (partner 0.5 µM)
Solution: true
